# Assay target: D-VEGF, synthetic D-protein form of VEGF-A(8-109) (Homo sapiens (Human)) (UniProt P15692)
# Sequence (P15692 214-315 limits assumed, form in doubt): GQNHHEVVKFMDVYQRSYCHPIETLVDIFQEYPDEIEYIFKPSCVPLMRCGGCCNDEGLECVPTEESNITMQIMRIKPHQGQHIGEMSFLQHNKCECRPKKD
# Protocol: SPR (ProteOn XPR36), D-VEGF immobilized
Value type: pKd
Answer as the number alone; pKd is minus log10 of concentration in mol/L.

The binder E01 (recombinant, His-tagged) (designed binder) MKIEEHHHHHHHHHHGGSTYKLILNGKTLKGETTTEAVDVYDAFDVFFVYAASNFSDFDDWTYDDATKTFTVTEGGSDK showed pKd equal to 7.87
